Biological target: human CD33 M334A (human, UniProt P20138 18-364)
Sequence (P20138 18-364 M334A limits assumed): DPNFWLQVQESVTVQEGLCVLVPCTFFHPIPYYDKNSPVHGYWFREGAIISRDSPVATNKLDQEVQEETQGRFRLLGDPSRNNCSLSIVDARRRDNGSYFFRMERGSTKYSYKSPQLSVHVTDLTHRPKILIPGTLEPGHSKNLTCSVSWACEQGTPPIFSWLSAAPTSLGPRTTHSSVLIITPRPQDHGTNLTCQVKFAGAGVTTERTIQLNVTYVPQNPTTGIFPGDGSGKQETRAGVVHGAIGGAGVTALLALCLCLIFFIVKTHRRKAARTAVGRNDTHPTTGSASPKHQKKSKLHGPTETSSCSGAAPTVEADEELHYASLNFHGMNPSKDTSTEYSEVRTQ
Assay: flow cytometry, alanine scan
Could you please report measured Mean % WT Binding for the items listed next?

Q: Query Mean % WT Binding for Refmab #3 (antibody, V domains shown, The alanine scan used IgG or Fab) VH: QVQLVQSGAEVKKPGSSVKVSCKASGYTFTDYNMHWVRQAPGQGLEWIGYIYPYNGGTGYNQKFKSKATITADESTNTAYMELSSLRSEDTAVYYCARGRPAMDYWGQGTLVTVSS VL: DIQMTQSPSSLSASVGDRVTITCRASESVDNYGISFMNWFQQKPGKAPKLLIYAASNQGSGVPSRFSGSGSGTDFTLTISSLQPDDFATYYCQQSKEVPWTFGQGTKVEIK
Result: 81.2 % of WT

Q: Query Mean % WT Binding for Refmab #4 (antibody, V domains shown, The alanine scan used IgG or Fab) VH: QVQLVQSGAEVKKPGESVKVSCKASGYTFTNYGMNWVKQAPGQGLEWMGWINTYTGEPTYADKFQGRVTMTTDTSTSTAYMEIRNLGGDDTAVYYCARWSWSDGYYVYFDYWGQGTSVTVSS VL: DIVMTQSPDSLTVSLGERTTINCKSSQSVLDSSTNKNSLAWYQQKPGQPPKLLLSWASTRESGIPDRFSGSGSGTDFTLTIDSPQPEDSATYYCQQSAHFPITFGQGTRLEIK
Result: 111 % of WT

Q: Query Mean % WT Binding for Refmab #2 (antibody, V domains shown, The alanine scan used IgG or Fab) VH: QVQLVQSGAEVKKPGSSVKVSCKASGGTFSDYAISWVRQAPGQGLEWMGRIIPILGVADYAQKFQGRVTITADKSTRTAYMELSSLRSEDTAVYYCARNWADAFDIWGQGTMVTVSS VL: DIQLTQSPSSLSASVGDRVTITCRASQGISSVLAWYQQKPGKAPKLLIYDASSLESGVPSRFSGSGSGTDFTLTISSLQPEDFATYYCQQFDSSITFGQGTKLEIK
Result: 106 % of WT

Q: Query Mean % WT Binding for Refmab #1 (antibody, V domains shown, The alanine scan used IgG or Fab; also called hP67.6) VH: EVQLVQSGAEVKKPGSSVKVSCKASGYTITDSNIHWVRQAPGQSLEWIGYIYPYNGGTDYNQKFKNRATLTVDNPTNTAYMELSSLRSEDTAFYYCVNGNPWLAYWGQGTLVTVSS VL: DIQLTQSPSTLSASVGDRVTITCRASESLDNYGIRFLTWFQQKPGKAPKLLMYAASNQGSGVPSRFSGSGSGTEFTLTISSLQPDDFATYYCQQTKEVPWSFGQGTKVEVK
Result: 94.6 % of WT
